test: Liver Microsome Stability Assay (human); details: human liver microsomes, with NADPH, 1.0 uM compound
Record form. Attribute: Liver Microsome Stability (Multiple Species): Human - % Remaining after 30 min w/NADPH. Fill in for each entry.
Please give the number followed by its unit.

Worked cases, answers included:
Compound: O=C(Nc1nc(CCC2CCCCO2)cs1)c1cccn1Cc1ccncc1 (centres unmarked)
Reported Measurement: 0.67%
--
Compound: CNC(=O)N1CC(Oc2ccc(N3CCC[C@@H]3c3csc(NC(=O)c4cccn4Cc4ccnc(F)c4)n3)cc2)C1
Reported Measurement: 26.2%
--
Compound: O=C(Nc1nc([C@H]2C[C@@H](OCCO)CN2c2ccccc2)cs1)c1cccn1Cc1ccncc1
Reported Measurement: 0.21%
--
Compound: O=C(Nc1nc([C@H]2CCCN2c2ccc(C3CC3)cc2)cs1)c1cccn1Cc1ccncc1
Reported Measurement: 22.4%
--
Compound: O=C(Nc1nc(/C=C/c2cn(-c3ccccc3)cn2)cs1)c1cccn1Cc1ccnc(F)c1
Reported Measurement: 0.21%

Okay, here is my list. What is Liver Microsome Stability (Multiple Species): Human - % Remaining after 30 min w/NADPH for each of these?
1. COC(=O)Nc1ccc(N2CCC[C@@H]2c2csc(NC(=O)c3cccn3Cc3ccnc(F)c3)n2)cc1
2. NC(=O)c1cc(C(=O)Nc2nc([C@H]3CCCN3c3ccccc3)cs2)n(Cc2ccnc(F)c2)c1
3. O=C(Nc1nc(C2C3CN(c4ccccn4)CC32)cs1)c1cccn1Cc1ccncc1 (centres unmarked)
4. CC(=O)N1CC=C(Oc2ccc(N3CCC[C@@H]3c3csc(NC(=O)c4cccn4Cc4ccnc(F)c4)n3)cc2)CC1
5. C[C@@H](N)c1ccc(N2CCC[C@@H]2c2csc(NC(=O)c3cccn3Cc3ccnc(F)c3)n2)cc1
6. O=C(Nc1nc(/C=C/c2ccon2)cs1)c1cccn1Cc1ccncc1
7. O=C(Nc1nc(/C=C/c2ncn3c2CCCC3)cs1)c1cccn1Cc1ccnc(F)c1
8. COC(=O)Nc1ccc(N2CCC[C@@H]2c2csc(NC(=O)c3cc(C)cn3Cc3ccnc(F)c3)n2)nc1

Solution:
["36.4%", "44.4%", "1.6%", "3.95%", "23.9%", "0.87%", "0.27%", "8.99%"]

Okay, here is my list. What is Liver Microsome Stability (Multiple Species): Human - % Remaining after 30 min w/NADPH for each of these?
1. O=C(Nc1nc([C@H]2CCCN2c2ccccc2)cs1)c1cccn1CCCc1nnn[nH]1
2. CN(C)c1cccc(-c2csc(NC(=O)c3cccn3Cc3ccncc3)n2)c1
3. O=C(Nc1nc([C@H]2CCCN2c2ccc(O[C@@H]3CCOC3)cc2)cs1)c1cccn1Cc1ccncc1
4. O=C(Nc1nc([C@H]2CCCN2c2ccccc2)cs1)c1cccn1CC1CCC(F)(F)CC1
5. N#CC1CC1Cn1cccc1C(=O)Nc1nc([C@H]2CCCN2c2ccccc2)cs1 (some centres unmarked)
6. N#CCn1cnc(/C=C/c2csc(NC(=O)c3cccn3Cc3ccnc(F)c3)n2)c1
7. O=C(Nc1nc([C@H]2CCCN2c2ccccc2)cs1)c1cccn1Cc1cccnc1

Solution:
1. 74.3%
2. 2.44%
3. 2.33%
4. 64%
5. 32.8%
6. 1.7%
7. 0.96%

---

assay: Liver Microsome Stability Assay (rat); conditions: rat liver microsomes, with NADPH, 1.0 uM compound
Record form. Attribute: Liver Microsome Stability (Multiple Species): Rat - % Remaining after 30 min w/NADPH. Fill in for each entry.
Please give the number followed by its unit.

Okay, here is my list. What is Liver Microsome Stability (Multiple Species): Rat - % Remaining after 30 min w/NADPH for each of these?
1. O=C(Nc1nc(/C=C/c2coc(C3CC3)n2)cs1)c1cccn1Cc1ccncc1 [Compound B40]
2. CNCc1ccc(N2CCC[C@@H]2c2csc(NC(=O)c3cccn3Cc3ccncc3)n2)cc1 [Compound A49]
3. CCn1cnc(/C=C/c2csc(NC(=O)c3cccn3Cc3ccnc(F)c3)n2)c1 [Compound B65]

Solution:
["0.73%", "10.7%", "4.75%"]

Exercise: # Liver Microsome Stability (Multiple Species): Rat - % Remaining after 30 min w/NADPH lookup, item N#CCC1(Cn2cccc2C(=O)Nc2nc([C@H]3CCCN3c3ccccc3)cs2)CC1 [Compound C8]
Solution: 8.76%
